# procedureDetails: AUC (0 to t) in C57BL/6J mouse at 3 mg/kg, iv
# Assay type: ADME, organism-based
# Design: dose 3 mg/kg, route intravenous
# conditionSummary: plasma
readoutName: AUC(0-t) (µM·h)

a. O=C(O)c1cc(-c2ccc(CC(c3ccccc3)c3nc(-c4ccccc4)no3)cc2)no1 (stereo not drawn)
b. COc1ccc(C(Cc2ccc(-c3cc(C(=O)O)on3)cc2)c2nc(-c3ccc(Cl)cc3)no2)cc1 (stereo not drawn)
Task for the reader: decide whether a or b has the larger AUC(0-t). Choose, then provide that item's label.
a

====

# testedOn: Tyrosine-protein phosphatase non-receptor type 1 (Homo sapiens)
# procedureDetails: Inhibition of human recombinant PTP1B expressed in Escherichia coli using para-nitrophenyl phosphate as substrate preincubated for 30 mins followed by substrate addition measured by […] analysis
readoutName: Ki (µM)

Use these answered entries as a reference point.
O=C(O)c1coc(-c2ccc(CC(C(=O)c3ccccc3)c3ccccc3)cc2)n1 (stereo not given) : 7.8
O=C(O)c1cc(-c2ccc(CC(C(=O)c3cc(F)cc(F)c3)c3ccc(F)cc3)cc2)no1 (stereo not given) : 2.4

P. O=C(O)c1cc(-c2ccc(CC(C(=O)c3ccc(F)c(F)c3)c3ccc(F)cc3)cc2)no1 (stereo not given)
Q. O=C(O)C1CCN(c2ccc(CC(C(=O)c3ccccc3)c3ccccc3)cc2)C1=O (stereo not given)
R. Cn1nc(-c2ccc(CC(C(=O)c3ccccc3)c3ccccc3)cc2)cc1C(=O)O (stereo not given)
Hey, quick one: sort these by Ki, largest value first please. Write the labels, ordered according to the request.
R, Q, P
(R: 7.8 µM, Q: 5.1 µM, P: 1.4 µM)

====

# procedureDetails: Cmax in C57BL/6J mouse at 3 mg/kg, iv
# Format: ADME, organism-based
# Set-up: dose 3 mg/kg, route intravenous
# conditionSummary: in vivo
readoutName: Cmax (nM)

O=C(O)c1cc(-c2ccc(CC(c3ccccc3)c3nc(-c4ccccc4)no3)cc2)no1 (stereo not drawn) : 1500

I. COc1ccc(C(Cc2ccc(-c3cc(C(=O)O)on3)cc2)c2nc(-c3ccc(Cl)cc3)no2)cc1 (stereo not drawn)
II. O=C(O)c1cc(-c2ccc(CC(C(=O)c3ccc(Cl)cc3)c3ccc(F)c(F)c3)cc2)no1 (stereo not drawn)
Task for the reader: decide whether I or II has the larger Cmax. Choose, then provide that item's label.
II
(II: 4500 nM, I: 1870 nM)

====

# procedureDetails: Oral bioavailability in C57BL/6J mouse at 30 mg/kg
# Type: ADME, organism-based
# conditionSummary: in vivo
readoutName: bioavailability (%)

COc1ccc(C(Cc2ccc(-c3cc(C(=O)O)on3)cc2)c2nc(-c3ccc(Cl)cc3)no2)cc1 (stereo not drawn) : 36

I. O=C(O)c1cc(-c2ccc(CC(c3ccccc3)c3nc(-c4ccccc4)no3)cc2)no1 (stereo not drawn)
II. O=C(O)c1cc(-c2ccc(CC(C(=O)c3ccc(Cl)cc3)c3ccc(F)c(F)c3)cc2)no1 (stereo not drawn)
Problem: Given the entries I and II , determine which has the lower reported bioavailability. Choose, then provide that item's label.
II
(II: 13%, I: 70%)

====

# testedOn: Tyrosine-protein phosphatase non-receptor type 1 (Homo sapiens, UniProt P18031)
# Sequence (P18031 whole entry): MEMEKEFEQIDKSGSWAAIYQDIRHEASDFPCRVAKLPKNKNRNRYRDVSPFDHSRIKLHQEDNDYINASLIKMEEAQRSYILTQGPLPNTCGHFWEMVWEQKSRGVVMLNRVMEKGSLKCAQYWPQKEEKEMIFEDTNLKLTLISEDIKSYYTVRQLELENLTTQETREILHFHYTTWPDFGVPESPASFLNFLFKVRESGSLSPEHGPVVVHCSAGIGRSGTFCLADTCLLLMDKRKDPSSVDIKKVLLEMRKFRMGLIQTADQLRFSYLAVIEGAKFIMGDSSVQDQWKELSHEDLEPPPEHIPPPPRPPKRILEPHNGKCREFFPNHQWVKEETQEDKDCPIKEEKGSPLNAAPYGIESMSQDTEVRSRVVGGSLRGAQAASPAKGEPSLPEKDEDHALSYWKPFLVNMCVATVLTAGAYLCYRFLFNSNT
# procedureDetails: Inhibition of human recombinant PTP1B expressed in Escherichia coli using para-nitrophenyl phosphate as substrate preincubated for 30 mins followed by substrate addition measured by […] analysis
readoutName: Ki (µM)

Use these answered entries as a reference point.
O=C(O)c1cc(-c2ccc(CC(c3ccccc3)c3nc(-c4ccccc4)no3)cc2)no1 (stereo unspecified) : 4
O=C(O)c1csc(-c2ccc(CC(C(=O)c3ccc(Cl)cc3)c3ccc(F)c(F)c3)cc2)n1 (stereo unspecified) : 0.6
O=C(O)c1cc(-c2ccc(CC(C(=O)c3ccccc3)c3ccccc3)cc2)no1 (stereo unspecified) : 1.1

P. O=C(O)c1csc(-c2ccc(CC(c3ccc(F)cc3)c3nc(-c4cccc(F)c4)no3)cc2)n1 (stereo unspecified)
Q. O=C(O)c1cc(-c2ccc(CC(C(=O)c3ccccc3)c3ccccc3)cc2)n[nH]1 (stereo unspecified)
R. O=C(O)C1CC(=O)N(c2ccc(CC(C(=O)c3ccccc3)c3ccccc3)cc2)C1 (stereo unspecified)
Hey, quick one: sort these by Ki, largest value first please. Write the labels, ordered according to the request.
Q, R, P

====

# procedureDetails: Elimination half life in C57BL/6J mouse at 3 mg/kg, iv
# Assay type: ADME, organism-based
# Design: dose 3 mg/kg, route intravenous
# conditionSummary: in vivo, read-out: beta t1/2 (converted)
readoutName: half-life (h)

COc1ccc(C(Cc2ccc(-c3cc(C(=O)O)on3)cc2)c2nc(-c3ccc(Cl)cc3)no2)cc1 (stereo not drawn) : 1.08

I. O=C(O)c1cc(-c2ccc(CC(c3ccccc3)c3nc(-c4ccccc4)no3)cc2)no1 (stereo not drawn)
II. O=C(O)c1cc(-c2ccc(CC(C(=O)c3ccc(Cl)cc3)c3ccc(F)c(F)c3)cc2)no1 (stereo not drawn)
Task for the reader: decide whether I or II has the larger half-life. Choose, then provide that item's label.
II

====

# procedureDetails: Apparent permeability across human Caco2 cells
# Assay type: ADME, cell-based
# conditionSummary: Caco-2
readoutName: Papp

Consider the compound `COC(=O)c1c(O)cccc1OC/C=C/c1ccc(F)c(-c2cc(C(=O)O)no2)c1` and give its measured Papp.
> 1 ×10⁻⁶ cm/s

====

# procedureDetails: Apparent permeability by PAMPA assay
# Assay type: ADME
readoutName: Papp (×10⁻⁶ cm/s)

O=C(O)c1cc(-c2ccc(CC(c3ccccc3)c3nc(-c4ccccc4)no3)cc2)no1 (stereo not given) : 45
O=C(O)c1cc(-c2ccc(CC(C(=O)c3ccccc3)c3ccccc3)cc2)no1 (stereo not given) : 103
O=C(O)c1csc(-c2ccc(CC(c3ccc(F)cc3)c3nc(-c4cccc(F)c4)no3)cc2)n1 (stereo not given) : 10
O=C(O)c1cc(-c2ccc(CC(C(=O)c3ccc(F)c(F)c3)c3ccc(F)cc3)cc2)no1 (stereo not given) : 16
O=C(O)c1cc(-c2ccc(CC(C(=O)c3ccc(F)cc3)c3ccc(F)cc3)cc2)no1 (stereo not given) : 8

I. COc1ccc(-c2noc(C(Cc3ccc(-c4cc(C(=O)O)on4)cc3)c3ccc(F)cc3)n2)cc1 (stereo not given)
II. O=C(O)c1cc(-c2ccc(CC(C(=O)c3ccc(Cl)cc3)c3ccc(F)c(F)c3)cc2)no1 (stereo not given)
III. O=C(O)c1csc(-c2ccc(CC(C(=O)c3ccccc3)c3ccccc3)cc2)n1 (stereo not given)
IV. COc1ccc(C(Cc2ccc(-c3nc(C(=O)O)cs3)cc2)c2nc(-c3cccc(F)c3)no2)cc1 (stereo not given)
V. COc1ccc(C(Cc2ccc(-c3cc(C(=O)O)on3)cc2)c2nc(-c3ccc(Cl)cc3)no2)cc1 (stereo not given)
List by increasing Papp. Write the labels, ordered according to the request.
I, IV, V, III, II
(I: 4 ×10⁻⁶ cm/s, IV: 6 ×10⁻⁶ cm/s, V: 48 ×10⁻⁶ cm/s, III: 85 ×10⁻⁶ cm/s, II: 168 ×10⁻⁶ cm/s)

====

# procedureDetails: Tmax in C57BL/6J mouse at 30 mg/kg, po
# Type: ADME, organism-based
# Parameters: dose 30 mg/kg, route oral
# conditionSummary: in vivo
readoutName: Tmax (h)

O=C(O)c1cc(-c2ccc(CC(c3ccccc3)c3nc(-c4ccccc4)no3)cc2)no1 (stereo not drawn) : 1
COc1ccc(C(Cc2ccc(-c3cc(C(=O)O)on3)cc2)c2nc(-c3ccc(Cl)cc3)no2)cc1 (stereo not drawn) : 1
O=C(O)c1cc(-c2ccc(CC(C(=O)c3ccc(Cl)cc3)c3ccc(F)c(F)c3)cc2)no1 (stereo not drawn) : 1

====

# testedOn: Tyrosine-protein phosphatase non-receptor type 2 (Homo sapiens)
# procedureDetails: Inhibition of TCPTP using para-nitrophenyl phosphate as substrate at 100 uM preincubated for 30 mins followed by substrate addition measured by […] analysis
readoutName: inhibition

Use these answered entries as a reference point.
COc1ccc(C(Cc2ccc(-c3cc(C(=O)O)on3)cc2)c2nc(-c3ccc(Cl)cc3)no2)cc1 (stereo unspecified) : < 10%
O=C(O)c1cc(-c2ccc(CC(c3ccccc3)c3nc(-c4ccccc4)no3)cc2)no1 (stereo unspecified) : < 10%
O=C(O)c1cc(-c2ccc(CC(C(=O)c3ccc(Cl)cc3)c3ccc(F)c(F)c3)cc2)no1 (stereo unspecified) : < 10%
COc1ccc(-c2noc(C(Cc3ccc(-c4cc(C(=O)O)on4)cc3)c3ccc(F)cc3)n2)cc1 (stereo unspecified) : < 10%
O=C(O)c1csc(-c2ccc(CC(C(=O)c3ccc(Cl)cc3)c3ccc(F)c(F)c3)cc2)n1 (stereo unspecified) : < 10%

Consider the record given below.
Consider the molecule O=C(O)c1cc(-c2ccc(CC(C(=O)c3ccccc3)c3ccccc3)cc2)no1 (stereo unspecified) and give its measured inhibition.
< 10%
